# System under test: mouse Oct1 (mOct1) (Mus musculus, UniProt O08966)
# Construct: NM_009202.5, stably transfected HEK293 cells
# Sequence (O08966 whole entry): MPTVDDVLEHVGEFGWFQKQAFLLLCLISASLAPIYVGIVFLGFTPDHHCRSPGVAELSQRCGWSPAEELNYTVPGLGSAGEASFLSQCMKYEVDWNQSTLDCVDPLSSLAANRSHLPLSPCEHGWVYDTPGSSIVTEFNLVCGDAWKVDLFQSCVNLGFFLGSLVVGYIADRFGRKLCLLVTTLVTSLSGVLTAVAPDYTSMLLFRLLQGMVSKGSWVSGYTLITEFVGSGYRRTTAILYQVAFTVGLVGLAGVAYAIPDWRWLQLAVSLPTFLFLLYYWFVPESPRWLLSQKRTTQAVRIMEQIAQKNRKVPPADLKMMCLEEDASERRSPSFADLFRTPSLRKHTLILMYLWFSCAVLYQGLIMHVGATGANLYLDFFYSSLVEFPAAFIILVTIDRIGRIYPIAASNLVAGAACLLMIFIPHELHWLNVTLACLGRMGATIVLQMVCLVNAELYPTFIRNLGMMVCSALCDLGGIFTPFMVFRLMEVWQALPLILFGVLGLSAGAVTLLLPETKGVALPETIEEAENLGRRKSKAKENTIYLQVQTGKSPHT
# Experiment notes: inhibition of 3H-MPP uptake in transfected HEK293 cells
Measurement name: pIC50
# pIC50: negative log10 of molar concentration; output just the value

Task item: Entry CCN1/C(=C/c2ccc3ccccc3[n+]2CC)C=Cc2ccccc21 : reported pIC50 = ?
Reply: 5.28
